tested on: DU-145 prostate; assay: NCI-60 one-dose screen, 48 h (100 = growth as untreated, 0 = no growth, -100 = all killed); settings: 10 µM unless noted
About 83,000 compounds went through this panel and 20% of them were active in at least one assay; those are over-represented in the sample as a whole.
# growth listing for each entry below
Readout type: growth (%)

| Compound | Readout type | Result unit | Numeric value |
| --- | --- | --- | --- |
| N#C[S-].[Au+].c1ccc(CN2[CH-]N(Cc3ccccc3)C(c3ccccc3)=C2c2ccccc2)cc1 | growth | % | 23.6 |
| O=C1CN=C(c2ccc(Cl)cc2)c2sccc2N1 | growth | % | 109 |
| O=C(CN1CCN(C(=O)c2ccco2)CC1)Nc1ccc(Cl)cc1C(=O)c1ccccc1Cl | growth | % | 111 |
| CN(C)CCCOc1ccc2c(c1)c(C(=O)C(=O)NCCO)cn2Cc1ccccc1 | growth | % | 106 |
| COP(=S)(N1CC1)N1CC1 | growth | % | 123 |
| COC(=O)C12CC(NC(=O)c3csc([C@@H](C[C@H](C(C)C)N(C)C(=O)[C@@H](NC(=O)[C@H]4CCCCN4C)C4CC4)OC(C)=O)n3)(C1)C2 | growth | % | 4.38 |
| Nc1nc([Se])c2ncn(C3OC(CO)C(O)C3O)c2n1 (configuration not stated) | growth | % | 39.9 |
| CCOC(=O)[C@@H](C)C[C@H](Cc1ccccc1)NC(=O)c1csc([C@@H](C[C@H](C(C)C)N(C)C(=O)[C@H](CCC(C)C)NC(=O)[C@H]2CCCCN2C)OC(C)=O)n1 | growth | % | 15.7 |
| CC[C@@H]1[C@@H](C)O[C@@](O)([C@@H](C)[C@H](O)[C@H](C)[C@H]2OC(=O)/C=C/C=C/[C@H](C)[C@@H]([C@@H](C)[C@@H](O)[C@H](C)[C@@]3(O)C[C@@H](O[C@H]4C[C@@H](O)[C@H](O)C(C)O4)[C@H](CC)[C@@H](C)O3)OC(=O)/C=C/C=C/[C@@H]2C)C[C@H]1O[C@@H]1C[C@@H](O)[C@H](O)C(C)O1 (some centres not stated) | growth | % | -97.5 |
| CC(=O)O[C@H]1C(=O)[C@@]2(C)[C@H]([C@H](OC(=O)c3ccccc3)[C@]3(O)C[C@H](OC(=O)[C@H](OC(=O)OCC4COC(C)(C)O4)[C@@H](NC(=O)c4ccccc4)c4ccccc4)C(C)=C1C3(C)C)[C@]1(OC(C)=O)CO[C@@H]1C[C@@H]2O (some centres not stated) | growth | % | 22.9 |
| COC(=O)[C@@H](C)C[C@H](Cc1ccccc1)NC(=O)c1csc([C@@H](C[C@H](C(C)C)N(C)C(=O)[C@@H](NC(=O)[C@H]2CCCCN2C)C2CCCCC2)OC(C)=O)n1 | growth | % | 6.23 |
| CC(=O)O[C@H]1C(=O)[C@@]2(C)[C@H]([C@H](OC(=O)c3ccccc3)[C@]3(O)C[C@H](OC(=O)[C@H](OC(=O)OC[C@H]4COC(C)(C)O4)[C@@H](NC(=O)c4ccccc4)c4ccccc4)C(C)=C1C3(C)C)[C@]1(OC(C)=O)CO[C@@H]1C[C@@H]2O | growth | % | 5.18 |
